test system: rat small-intestinal brush border membrane vesicles; experiment: Inhibitory effect on 33PO4 uptake into rat small-intestinal brush border membrane vesicles (rapid filtration method); type: biochemical, Wistar female rat; settings: 1 µM test compound; 33PO4 uptake into rat small-intestinal BBMVs, 60 seconds
Answer Not satisfied if Rate of uptake inhibition (%) (1 µM) is under 40%, and Satisfied if it is 40% or more.

{"Molecule": "CN1N(Cc2ccc(OCCOCCOCCOCCNC(=O)[C@@H](O)[C@H](O)[C@@H](O)[C@@H](O)CO)c(F)c2F)C(=O)C(C(=O)Nc2ccc(C(F)(F)F)cc2-c2cc(C(F)(F)F)ncn2)=C(O)C12CCCC2 [Example 428]", "Answer label": "Not satisfied"}
{"Molecule": "CN1N(Cc2ccc(OCC(=O)N3CCOCC3)c(F)c2F)C(=O)C(C(=O)Nc2ccc(C(F)(F)F)cc2-c2cc(C(F)(F)F)ncn2)=C(O)C12CCC2 [Example 336]", "Answer label": "Satisfied"}
{"Molecule": "C[C@]12CCCN1N(Cc1ccc(OCCCCOC[C@H](O)CO)c(F)c1F)C(=O)C(C(=O)Nc1ccc(Cl)cc1-c1ccc(C(F)(F)F)nc1)=C2O [Example 121]", "Answer label": "Satisfied"}
{"Molecule": "C[C@]12CCCN1N(Cc1cccc(F)c1F)C(=O)C(C(=O)Nc1ccc(C(F)(F)F)cc1-c1ncnc(Cl)c1Cl)=C2O [Example 70]", "Answer label": "Satisfied"}

*Q* Dear colleague, could you confirm whether COC(=O)COc1ccc(CN2C(=O)C(C(=O)Nc3ccc(C(F)(F)F)cc3-c3ccc(C(F)(F)F)nc3)=C(O)[C@@]3(C)CCCN23)c(F)c1F [Example 150] has Rate of uptake inhibition (%) (1 µM) at or above 40%?
*A* Satisfied

Sourced from patent EP2975030B1
